Sourced from patent US9359311B2

System: primary chicken neurons
Test: Inhibition of Abeta 1-42 toxicity on primary chicken neurons (MTT)
Assay type: cell-based
Design: key: No: no effect; +: minor positive effect on cell viability in the presence of aggregated Aβ 1-42; ++: medium positive effect on cell viability in the presence of aggregated Aβ 1-42; +++: strong positive effect on cell viability in the presence of aggregated Aβ 1-42
Conditions: Conc. 10 μM; 10 μM Aβ1-42 aggregated together with compound for 48 h
propertyName: Rescue of Abeta toxicity (MTT)

Reference set, count: 4
{"columns": ["compound", "Rescue of Abeta toxicity (MTT)"],
 "data": [
  ["O=C(O)Cc1ccsc1-c1ccc(-c2sc(-c3cccc(-c4cc(CC(=O)O)c(-c5ccc(-c6sccc6CC(=O)O)cc5)s4)c3)cc2CC(=O)O)cc1 [Example 39]", "no"],
  ["O=C(O)Cc1ccsc1-c1ccc(-c2sc(-c3cc(CC(=O)O)c(-c4ccc(-c5sccc5CC(=O)O)s4)s3)cc2CC(=O)O)s1 [Example 17]", "+++"],
  ["O=C(O)Cc1ccccc1-c1ccc(-c2cc(CC(=O)O)c(-c3ccc(-c4sc(-c5ccc(-c6ccccc6CC(=O)O)s5)cc4CC(=O)O)s3)s2)s1 [Example 56]", "+++"],
  ["O=C(O)Cc1ccsc1-c1ccc(-c2sc(-c3ccc(-c4cc(CC(=O)O)c(-c5ccc(-c6sccc6CC(=O)O)s5)s4)s3)cc2CC(=O)O)s1 [Example 1]", "+++"]
]}

// query // lookup Rescue of Abeta toxicity (MTT) for O=C(O)Cc1cc(C(=O)c2cccs2)sc1-c1ccc(-c2sc(C(=O)c3cccs3)cc2CC(=O)O)s1 [Example 93]
// result +++

// query // query: O=C(O)c1ccc(-c2cc(CCO)c(-c3ccc(-c4sc(-c5ccc(C(=O)O)s5)cc4CCO)s3)s2)s1 [Example 5]
// result +

// query Another compound to check: O=C(O)Cc1ccsc1-c1ccc(-c2sc(-c3ccc(-c4cc(CC(=O)O)c(-c5ccc(-c6sccc6CC(=O)O)s5)s4)cc3)cc2CC(=O)O)s1 [Example 33]
// result no

// query Same thing, different compound: O=C(O)Cc1cc(-c2ccc(-c3cc(CC(=O)O)c(-c4ccc(C(=O)O)s4)s3)s2)sc1-c1ccc(C(=O)O)s1 [Example 6]
// result +++

###

Biological target: biotinylated Aβ1-42 (Homo sapiens, UniProt P05067)
Construct: To assure monomerisation of biotinylated Aβ1-42 (Anaspec #23523-0.5) the peptide was thoroughly monomerised
Sequence (P05067 672-713 limits assumed): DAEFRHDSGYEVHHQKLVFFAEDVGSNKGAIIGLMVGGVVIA
Test: Inhibition of Abeta oligomerisation (biotinylated Aβ1-42, neutravidin plate, streptavidin-HRP)
Settings: inhibition of Aβ1-42 aggregation, approximately 12 nM Aβ1-42, PBS pH 7.4, 2% DMSO, 30 min RT
Recorded IC50 by entry

{"columns": ["molecule", "propertyName", "recordedResult"],
 "data": [
  ["CS(=O)(=O)c1ccc(-c2ccc(-c3sc(-c4cc(CC(=O)O)c(-c5ccc(-c6ccc(S(C)(=O)=O)cc6)s5)s4)cc3CC(=O)O)s2)cc1", "IC50", "2.51 µM"],
  ["O=C(O)Cc1ccsc1-c1ccc(-c2sc(-c3cccc(-c4cc(CC(=O)O)c(-c5ccc(-c6sccc6CC(=O)O)s5)s4)c3)cc2CC(=O)O)s1", "IC50", "0.794 µM"],
  ["O=C(O)Cc1cc(Cl)sc1-c1ccc(-c2sc(-c3ccc(-c4cc(CC(=O)O)c(-c5ccc(-c6sc(Cl)cc6CC(=O)O)s5)s4)s3)cc2CC(=O)O)s1", "IC50", "0.398 µM"],
  ["O=C(O)Cc1cc(-c2ccc(C(=O)N3CCCC3)c(F)c2)sc1-c1ccc(-c2sc(-c3ccc(C(=O)N4CCCC4)c(F)c3)cc2CC(=O)O)s1", "IC50", "5.01 µM"],
  ["O=C(O)Cc1ccccc1-c1ccc(-c2cc(CC(=O)O)c(-c3ccc(-c4sc(-c5ccc(-c6ccccc6CC(=O)O)s5)cc4CC(=O)O)s3)s2)s1", "IC50", "3.16 µM"]
]}

// query I would be grateful if you could share the reported IC50 for NCCc1ccsc1-c1ccc(-c2sccc2CCN)s1 .
// result 15.8 µM

// query Okay, and O=C(O)Cc1cc(-c2cccnc2)sc1-c1ccc(-c2sc(-c3ccc(C(=O)O)s3)cc2CC(=O)O)s1 ?
// result 7.94 µM

// query Can you check COC(=O)c1ccc(-c2cc(CC(=O)O)c(-c3ccc(-c4sc(-c5ccc(C(=O)OC)s5)cc4CC(=O)O)s3)s2)s1 next?
// result 3.16 µM

// query Moving on to the next molecule: CS(=O)(=O)c1ccc(-c2sc(-c3ccc(-c4cc(CC(=O)O)c(-c5ccc(S(C)(=O)=O)cc5)s4)cc3)cc2CC(=O)O)cc1
// result 5.01 µM

###

Molecular target: biotinylated Aβ1-42 (Homo sapiens, UniProt P05067)
Construct: To assure monomerisation of biotinylated Aβ1-42 (Anaspec #23523-0.5) the peptide was thoroughly monomerised
Experiment: Inhibition of Abeta oligomerisation (biotinylated Aβ1-42, neutravidin plate, streptavidin-HRP)
Conditions: inhibition of Aβ1-42 aggregation, approximately 12 nM Aβ1-42, PBS pH 7.4, 2% DMSO, 30 min RT
propertyName: IC50 (µM)
Field: numeric (µM). Do not append units.

Take a look at these entries with their results.
{"columns": ["molecule", "IC50, µM"],
 "data": [
  ["N#Cc1ccc(-c2cc(CC(=O)O)c(-c3ccc(-c4sc(-c5ccc(C#N)s5)cc4CC(=O)O)s3)s2)s1 [Example 85]", 3.98],
  ["O=C(O)Cc1cc(-c2cc(CC(=O)O)c(-c3ccc(-c4cccc(C(=O)O)c4)s3)s2)sc1-c1ccc(-c2cccc(C(=O)O)c2)s1 [Example 66]", 5.01],
  ["O=C(O)Cc1cc(-c2cccc(C(=O)O)c2)sc1-c1ccc(-c2sc(-c3cccc(C(=O)O)c3)cc2CC(=O)O)s1 [Example 10]", 7.94],
  ["O=C(O)CCc1cc(-c2ccc(C(=O)O)s2)sc1-c1ccc(-c2sc(-c3ccc(C(=O)O)s3)cc2CCC(=O)O)s1 [Example 53]", 3.98],
  ["CS(=O)(=O)c1ccc(-c2cc(CCN)c(-c3ccc(-c4sc(-c5ccc(S(C)(=O)=O)cc5)cc4CCN)s3)s2)cc1 [Example 41]", 0.794]
]}

// query Query (molecule): O=C(O)Cc1ccsc1-c1ccc(-c2sc(-c3cccc(-c4cc(CC(=O)O)c(-c5ccc(-c6sccc6CC(=O)O)cc5)s4)c3)cc2CC(=O)O)cc1 [Example 39] ; field requested: IC50
// result 0.794

// query Input O=C(O)Cc1cc(-c2ccc(-c3cc(CC(=O)O)c(-c4ccc(C(=O)O)s4)s3)s2)sc1-c1ccc(C(=O)O)s1 [Example 6]
// result 7.94

// query // same read-out, input: O=C(O)c1ccc(-c2cc(CCO)c(-c3ccc(-c4sc(-c5ccc(C(=O)O)s5)cc4CCO)s3)s2)s1 [Example 5]
// result 3.98

// query # repeat for CC(=O)NCCc1cc(-c2ccc(C(=O)O)s2)sc1-c1ccc(-c2sc(-c3ccc(C(=O)O)s3)cc2CCNC(C)=O)s1 [Example 7]
// result 3.98

###

Biological target: biotinylated Aβ1-42 (Homo sapiens, UniProt P05067)
Construct: To assure monomerisation of biotinylated Aβ1-42 (Anaspec #23523-0.5) the peptide was thoroughly monomerised
Test: Inhibition of Abeta oligomerisation (biotinylated Aβ1-42, neutravidin plate, streptavidin-HRP)
Settings: inhibition of Aβ1-42 aggregation, approximately 12 nM Aβ1-42, PBS pH 7.4, 2% DMSO, 30 min RT
Could you mark each record 1 if its IC50 falls strictly under 3 µM, and 0 if it equals or exceeds it?

Solved entries (count: 3):
{"columns": ["compound", "labelValue"],
 "data": [
  ["Cn1nc(C(F)(F)F)cc1-c1cc(CC(=O)O)c(-c2ccc(-c3sc(-c4cc(C(F)(F)F)nn4C)cc3CC(=O)O)s2)s1", 0],
  ["CS(=O)(=O)c1ccc(-c2cc(CC(=O)O)c(-c3ccc(-c4sc(-c5ccc(C(=O)O)s5)cc4CC(=O)O)s3)s2)cc1", 0],
  ["O=C(O)Cc1cc(-c2cccc(C(=O)NC3CC3)c2)sc1-c1ccc(-c2sc(-c3cccc(C(=O)NC4CC4)c3)cc2CC(=O)O)s1", 0]
]}

// query Here's an entry: O=C(O)Cc1cc(-c2ccc(-c3ccc(C(=O)O)cc3)s2)sc1-c1ccc(-c2sc(-c3ccc(-c4ccc(C(=O)O)cc4)s3)cc2CC(=O)O)s1 . Is its IC50 below 3 µM?
// result 0

// query Okay, and O=C(O)Cc1cc(-c2ccc(-c3ccc(C(=O)O)s3)s2)sc1-c1ccc(-c2sc(-c3ccc(-c4ccc(C(=O)O)s4)s3)cc2CC(=O)O)s1 ?
// result 1

// query For Cc1ccc(-c2ccc(-c3cc(CC(=O)O)c(-c4ccc(-c5sc(-c6ccc(-c7ccc(C)cc7C(=O)O)s6)cc5CC(=O)O)s4)s3)s2)c(C(=O)O)c1 then?
// result 1

// query Then this compound: O=C(O)Cc1cc(-c2cccnc2)sc1-c1ccc(-c2sc(-c3cccnc3)cc2CC(=O)O)s1
// result 0

// query // query: CS(=O)(=O)c1cccc(-c2cc(CC(=O)O)c(-c3ccc(-c4sc(-c5cccc(S(C)(=O)=O)c5)cc4CC(=O)O)s3)s2)c1
// result 1

// query Cool, now O=C(O)Cc1cc(-c2ccc(-c3ccccc3C(=O)O)s2)sc1-c1ccc(-c2sc(-c3ccc(-c4ccccc4C(=O)O)s3)cc2CC(=O)O)s1
// result 0
